Cited source: the supplement of paper PMC10126150

System: ATP;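 also: ATP exposure 15 min at 22 °C before imaging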
Test: switch fluorescence ratio, 500 uM ATP over buffer (Cy3 cluster intensity, sum of 5 cycles each) (fold (ratio)); higher = stronger signal-on switching upon ATP binding; sequences stand for … in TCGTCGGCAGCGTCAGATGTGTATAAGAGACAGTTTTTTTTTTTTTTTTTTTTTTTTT…TC
Conditions: aptamer strand: ATP DNA aptamer (quencher-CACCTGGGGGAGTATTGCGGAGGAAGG + anchor), 100 nM annealed; ATP concentration: 500 uM
endpoint name: switch fluorescence ratio
Number only, no unit.

Which switch fluorescence ratio value belongs to AGTCAATTAG ?
1.04

Repeat for the following sequence: TTAGAAGCTT
1.03

Now consider TTAGAGGGAC .
0.971

Next up: AATTCGGGGT
1.01

---

System: ATP;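 also: ATP exposure 15 min at 22 °C before imaging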
Test: switch fluorescence ratio, 500 uM ATP over buffer (Cy3 cluster intensity, sum of 5 cycles each) (fold (ratio)); higher = stronger signal-on switching upon ATP binding; sequences stand for … in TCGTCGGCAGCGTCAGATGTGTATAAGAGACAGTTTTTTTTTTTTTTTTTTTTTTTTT…TC
Conditions: aptamer strand: ATP DNA aptamer (quencher-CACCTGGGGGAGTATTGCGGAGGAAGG + anchor), 100 nM annealed; ATP concentration: 500 uM
endpoint name: switch fluorescence ratio
Format: numeric value only, no unit, no commentary.

Look at this sequence and give its reported switch fluorescence ratio. AGTGCCCGTA
1.02

Here is the next sequence: GATCTTTCAT
1

And then TTTAGGGA , what is it?
0.973

Follow-up entry: CTGAGGCCCG
0.984

Proceed to GGTATGGTGG
1.01

Try the sequence ATTTGCTTAG
0.994

Request: CTGTTTAGGG
1.01

Also TAAAAAGGTA ?
1.02

Ok, now TATGTTATTA
0.984

Same question, GAGGGTTAC this time
1.01

Again, but for AACGGCCGTG
1.02

Field entry: AGGCAGTTCG
0.996

One more sequence: TCCAAGGGCA
1.01

Consider next the sequence TTGGGCCCCT in the same way.
0.997

Lookup TAAAAGTTTG
0.996

Let us now turn to CAGAGGAGGG
0.975

Entry to check: GAAGGCTCTG
0.992

Also TGGGGATAGC , if possible.
1.02

Let us now turn to CCCAGTTTTT
1.01

Entry AGGTCCTCTA please
0.974

Next sequence up: GGGAGTTGAA
0.975

Follow-up item: TGGGTGCGCG
1.01

Now the same for TTTGATGTAA
1.01

// same read-out, input: CTGGGACCTA
1.02

Similarly, CGGGTGGCGA ?
1.02

Now this one: GGGGGTTGAC
1.01

Another: TAGGTGGGGC
0.996

Now try AGGGAGATTT .
0.99

What do we get for TCCAGGACTA ?
1.02

Now the same for TTTTGCACCG
1.02

Now give it for GCTGCTGGTA too.
1.02

Also, GTTGTACGGG please.
1.02

And then CGGAGAGAGC , what is it?
0.993

Also TGACGTGCGT ?
1.02

Try CAGGGAATTG next.
0.989

Would you mind doing ACAGTTGGTT as well?
0.99

Similarly, GTTGGCGTTT ?
1.02

One more sequence: TAGGGGGGAT
0.992
